Target: Substance-P receptor (Homo sapiens)
Assay: Displacement of [125I]L-703606 from human NK1 expressed in CHO cells
quantity: pIC50
# log scale: pIC50 equals minus log10 of the concentration in mol/L

-- ask Recorded pIC50 of C[C@@H](O[C@H]1CN2C(=O)N(C)C[C@H]2[C@@H]1c1ccc(F)cc1)c1cc(C(F)(F)F)cc(C(F)(F)F)c1 , please.
-- reply 9.06

Further cases:
-- ask Which value of pIC50 has been reported for C[C@@H](O[C@@H]1[C@@H](c2ccccc2)CN2C(=O)OC[C@@H]12)c1cc(C(F)(F)F)cc(C(F)(F)F)c1 in the records?
-- reply 8.89

-- ask Another: C[C@@H](O[C@H]1CN(C(=O)OC(C)(C)C)[C@@H](CO)[C@@H]1c1ccc(F)cc1)c1cc(C(F)(F)F)cc(C(F)(F)F)c1
-- reply 9.55

-- ask Also C[C@@H](O[C@H]1CN(C(=O)OC(C)(C)C)[C@@H](CO)[C@@H]1c1ccccc1)c1cc(C(F)(F)F)cc(C(F)(F)F)c1 , if possible.
-- reply 9.20

----------
Biological target: Substance-P receptor (Homo sapiens, UniProt P25103)
Sequence (P25103 whole entry): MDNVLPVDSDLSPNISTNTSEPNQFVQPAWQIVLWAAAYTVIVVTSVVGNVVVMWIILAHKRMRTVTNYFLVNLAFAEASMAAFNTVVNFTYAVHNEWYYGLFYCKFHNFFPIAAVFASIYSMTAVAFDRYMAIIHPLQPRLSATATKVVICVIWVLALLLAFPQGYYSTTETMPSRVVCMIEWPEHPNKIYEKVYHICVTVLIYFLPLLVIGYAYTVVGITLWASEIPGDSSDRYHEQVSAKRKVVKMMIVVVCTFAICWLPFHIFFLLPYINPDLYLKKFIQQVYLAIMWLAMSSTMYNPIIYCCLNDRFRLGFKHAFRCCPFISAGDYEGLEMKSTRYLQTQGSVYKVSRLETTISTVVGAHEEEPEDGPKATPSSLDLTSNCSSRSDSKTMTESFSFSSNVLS
Experiment: Displacement of [125I]L-703606 from human NK1 expressed in CHO cells
Strictly below 3 nM in IC50: label 1. Otherwise: label 0.

-- ask API: query returns whether the molecule falls strictly under 3 nM in IC50. Query: C[C@@H](O[C@@H]1[C@@H](c2ccccc2)CN(C(=O)OC(C)(C)C)[C@H]1CO)c1cc(C(F)(F)F)cc(C(F)(F)F)c1
-- reply label 0

-- ask Then this molecule: C[C@@H](O[C@H]1CN2C(=O)N(Cc3ccccc3)C[C@H]2[C@@H]1c1ccc(F)cc1)c1cc(C(F)(F)F)cc(C(F)(F)F)c1
-- reply label 1

-- ask Another molecule to check: C[C@@H](O[C@@H]1[C@@H](c2ccc(F)cc2)CN2C(=O)OC[C@H]12)c1cc(C(F)(F)F)cc(C(F)(F)F)c1
-- reply label 1

-- ask Subsequent entry: C[C@@H](O[C@@H]1[C@@H](c2ccccc2)CN2C(=O)OC[C@H]12)c1cc(C(F)(F)F)cc(C(F)(F)F)c1
-- reply label 1

-- ask Next record, please: C[C@@H](O[C@H]1CN2C(=O)NC[C@H]2[C@@H]1c1ccc(F)cc1)c1cc(C(F)(F)F)cc(C(F)(F)F)c1
-- reply label 1

-- ask What do you get for C[C@@H](O[C@H]1CN2C(=O)CC[C@H]2[C@@H]1c1ccc(F)cc1)c1cc(C(F)(F)F)cc(C(F)(F)F)c1 ?
-- reply label 1

-- ask Could you do the same for C[C@@H](O[C@H]1[C@H](c2ccccc2)CN(C(=O)OC(C)(C)C)[C@H]1CO)c1cc(C(F)(F)F)cc(C(F)(F)F)c1 , please?
-- reply label 0

-- ask Same thing, different molecule: C[C@@H](O[C@H]1[C@H](c2ccc(F)cc2)CN(C(=O)OC(C)(C)C)[C@H]1CO)c1cc(C(F)(F)F)cc(C(F)(F)F)c1
-- reply label 0

Next up:
-- ask Threshold test, IC50 < 3 nM: C[C@@H](O[C@H]1CN2C(=O)OC[C@@H]2[C@@H]1c1ccc(F)cc1)c1cc(C(F)(F)F)cc(C(F)(F)F)c1
-- reply label 1

----------
Biological target: Substance-P receptor (Homo sapiens)
Experiment: Displacement of [125I]L-703606 from human NK1 expressed in CHO cells in presence of 50% human serum
Type: cell-based
Active and inactive are the calls of the source. The rule behind the calls is not given here.
quantity: Activity

Solved cases (7 shown):
-- ask Given C[C@@H](O[C@H]1CN2C(=O)N(C)C[C@H]2[C@@H]1c1ccc(F)cc1)c1cc(C(F)(F)F)cc(C(F)(F)F)c1 , state its recorded Activity.
-- reply 32 nM

-- ask Can you handle C[C@@H](O[C@H]1CN2C(=O)OC[C@@H]2[C@@H]1c1ccccc1)c1cc(C(F)(F)F)cc(C(F)(F)F)c1 next?
-- reply 37 nM

-- ask Now consider C[C@@H](O[C@H]1CN2C(=O)NC[C@H]2[C@@H]1c1ccc(F)cc1)c1cc(C(F)(F)F)cc(C(F)(F)F)c1 and answer again.
-- reply 2 nM

-- ask Again, but for C[C@@H](O[C@H]1CN2C(=O)OC[C@@H]2[C@@H]1c1ccc(F)cc1)c1cc(C(F)(F)F)cc(C(F)(F)F)c1
-- reply 37 nM

-- ask Same for C[C@@H](O[C@H]1CN2C(=O)N(Cc3ccccc3)C[C@H]2[C@@H]1c1ccc(F)cc1)c1cc(C(F)(F)F)cc(C(F)(F)F)c1
-- reply inactive

-- ask Next record, please: C[C@@H](O[C@@H]1[C@@H](c2ccc(F)cc2)CN2C(=O)OC[C@H]12)c1cc(C(F)(F)F)cc(C(F)(F)F)c1
-- reply inactive

-- ask What do you have for C[C@@H](O[C@@H]1[C@@H](c2ccc(F)cc2)CN2C(=O)OC[C@@H]12)c1cc(C(F)(F)F)cc(C(F)(F)F)c1 ?
-- reply 57 nM

Turning now to a further record.
-- ask Fill blank: measured Activity of the compound C[C@@H](O[C@H]1CN2C(=O)CC[C@H]2[C@@H]1c1ccc(F)cc1)c1cc(C(F)(F)F)cc(C(F)(F)F)c1 is ____.
-- reply 2.2 nM

----------
Target: UniProtKB P25103
Test: Displacement of [125I]L-703606 from human NK1 expressed in CHO cells at 0.1 uM
Type: cell-based
quantity: Activity (%)
Entry rule: numbers only, all in %.

Here is how some compounds turned out for Activity.
-- ask Reported Activity for C[C@H](O[C@H]1CN(C(=O)OC(C)(C)C)[C@@H](CO)[C@@H]1c1ccc(F)cc1)c1cc(C(F)(F)F)cc(C(F)(F)F)c1 : what is it?
-- reply 92

-- ask What would you report for C[C@H](O[C@@H]1[C@@H](c2ccc(F)cc2)CN(C(=O)OC(C)(C)C)[C@H]1CO)c1cc(C(F)(F)F)cc(C(F)(F)F)c1 ?
-- reply 41

-- ask Next entry: C[C@H](O[C@H]1[C@H](c2ccccc2)CN(C(=O)OC(C)(C)C)[C@H]1CO)c1cc(C(F)(F)F)cc(C(F)(F)F)c1
-- reply 13

Continuing:
-- ask Entry C[C@H](O[C@@H]1[C@@H](c2ccccc2)CN(C(=O)OC(C)(C)C)[C@H]1CO)c1cc(C(F)(F)F)cc(C(F)(F)F)c1 : reported Activity = ?
-- reply 26

-- ask Let us now turn to C[C@H](O[C@H]1CN(C(=O)OC(C)(C)C)[C@@H](CO)[C@@H]1c1ccccc1)c1cc(C(F)(F)F)cc(C(F)(F)F)c1
-- reply 26

-- ask Also C[C@H](O[C@H]1[C@H](c2ccc(F)cc2)CN(C(=O)OC(C)(C)C)[C@H]1CO)c1cc(C(F)(F)F)cc(C(F)(F)F)c1 ?
-- reply 39

----------
Biological target: Substance-P receptor (Homo sapiens)
Assay: Displacement of [125I]L-703606 from human NK1 expressed in CHO cells
Listed here are compounds together with their documented IC50.
// return numeric value only (unit: nM, not printed)

# count of solved cases: 2
-- ask Entry C[C@@H](O[C@H]1CN2C(=O)OC[C@@H]2[C@@H]1c1ccccc1)c1cc(C(F)(F)F)cc(C(F)(F)F)c1 : reported IC50 = ?
-- reply 0.27

-- ask Same read-out for C[C@@H](O[C@@H]1[C@@H](c2ccc(F)cc2)CN2C(=O)OC[C@@H]12)c1cc(C(F)(F)F)cc(C(F)(F)F)c1 ?
-- reply 0.33

Next item in the queue.
-- ask Entry C[C@@H](O[C@@H]1[C@@H](c2ccc(F)cc2)CN(C(=O)OC(C)(C)C)[C@H]1CO)c1cc(C(F)(F)F)cc(C(F)(F)F)c1 has what IC50?
-- reply 1.2
